System: L1210 leukemia ip in BDF1 mice, survival T/C
Method: NCI In Vivo Anticancer Drug Screen. Data for tumor model L1210 Leukemia (intraperitoneal) in B6D2F1 (BDF1) mice
Condition parameters: endpoint: mean survival time; dose: 400.0 mg/kg/injection; schedule: Q04DX003 (ip); vehicle: other; higher = longer survival
Toxic doses and inconclusive results are not listed.
Parameter: T/C

> print(dat)
                         structure.notation  parameter               val
1               Cc1nnc(NC(=O)C(Cl)(Cl)Cl)s1        T/C   96 % of control
2                 CC(=O)N(CC(=O)O)Cc1ccccc1        T/C  106 % of control
3  CC(=O)/C(=C\c1ccc(Cl)c(Cl)c1)C(=O)c1ccccc1        T/C   93 % of control
4              CCCNC(=O)Oc1ccc(C2CCCCC2)cc1        T/C  104 % of control
5                     CN(CCO)N=Nc1ccccc1C#N        T/C   98 % of control
6          CCOC(=O)/C=C1\CCCc2cc(C)c(C)cc21        T/C  104 % of control
7  COc1cc(CCNC(=O)Cc2ccc(OCc3ccccc3)cc2)ccc1OCc1ccccc1        T/C   94 % of control
8     COc1cccc(CN(CCC(=O)O)Cc2cccc(OC)c2)c1        T/C   93 % of control

Sourced from PubChem BioAssay AID248
